Measured values drawn from patent US20240018502A1 for this set.

# target: plasma purified human complement protein C3 (human) (UniProt P01024)
# Sequence (P01024 23-667, chain 1 of 2): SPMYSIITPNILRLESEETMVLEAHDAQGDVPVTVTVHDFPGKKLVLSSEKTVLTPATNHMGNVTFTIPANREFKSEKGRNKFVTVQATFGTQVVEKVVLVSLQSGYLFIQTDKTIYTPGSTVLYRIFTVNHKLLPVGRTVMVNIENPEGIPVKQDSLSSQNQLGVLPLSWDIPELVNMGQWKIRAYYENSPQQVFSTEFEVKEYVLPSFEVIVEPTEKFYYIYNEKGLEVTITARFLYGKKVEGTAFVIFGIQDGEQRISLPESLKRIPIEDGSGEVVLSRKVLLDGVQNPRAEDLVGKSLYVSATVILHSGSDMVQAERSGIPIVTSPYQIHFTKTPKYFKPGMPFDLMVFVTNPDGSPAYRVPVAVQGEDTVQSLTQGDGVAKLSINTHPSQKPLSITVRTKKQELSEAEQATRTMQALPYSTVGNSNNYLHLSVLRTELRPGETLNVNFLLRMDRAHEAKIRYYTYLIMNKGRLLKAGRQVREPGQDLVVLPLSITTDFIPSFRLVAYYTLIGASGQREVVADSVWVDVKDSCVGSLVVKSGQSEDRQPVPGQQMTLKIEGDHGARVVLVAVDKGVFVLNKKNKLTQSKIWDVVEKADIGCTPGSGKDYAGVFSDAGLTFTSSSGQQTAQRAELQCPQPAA
# Sequence (P01024 672-1663, chain 2 of 2): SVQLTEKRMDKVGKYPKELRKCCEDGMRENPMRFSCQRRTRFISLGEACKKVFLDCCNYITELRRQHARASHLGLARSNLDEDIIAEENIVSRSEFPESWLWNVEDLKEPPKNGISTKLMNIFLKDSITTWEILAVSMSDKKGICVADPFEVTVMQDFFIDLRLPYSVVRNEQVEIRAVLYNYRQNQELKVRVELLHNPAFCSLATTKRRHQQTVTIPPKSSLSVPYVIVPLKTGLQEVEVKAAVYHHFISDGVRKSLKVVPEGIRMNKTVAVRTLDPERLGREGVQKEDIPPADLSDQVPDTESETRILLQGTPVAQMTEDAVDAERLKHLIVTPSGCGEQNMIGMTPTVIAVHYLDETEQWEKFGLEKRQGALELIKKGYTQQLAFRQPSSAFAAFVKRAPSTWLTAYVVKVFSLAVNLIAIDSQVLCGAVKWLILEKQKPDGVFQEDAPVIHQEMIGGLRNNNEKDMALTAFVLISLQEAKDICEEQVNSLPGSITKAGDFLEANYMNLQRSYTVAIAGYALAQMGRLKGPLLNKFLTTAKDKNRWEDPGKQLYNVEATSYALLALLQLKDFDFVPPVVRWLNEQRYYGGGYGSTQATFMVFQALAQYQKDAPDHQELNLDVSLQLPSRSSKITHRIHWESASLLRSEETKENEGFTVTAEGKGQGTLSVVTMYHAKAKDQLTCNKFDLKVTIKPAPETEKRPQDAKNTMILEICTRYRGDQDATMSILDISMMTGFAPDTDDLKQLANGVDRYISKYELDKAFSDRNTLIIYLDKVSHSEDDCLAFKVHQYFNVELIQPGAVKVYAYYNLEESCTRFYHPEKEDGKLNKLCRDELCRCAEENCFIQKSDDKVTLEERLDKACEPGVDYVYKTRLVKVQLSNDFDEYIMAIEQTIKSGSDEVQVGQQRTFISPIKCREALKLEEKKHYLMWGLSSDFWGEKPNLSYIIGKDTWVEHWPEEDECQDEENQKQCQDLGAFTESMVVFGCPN
# assay details: cell-based or functional assay
observation type: EC50 of hC3 cleavage
Put down the number, then write its unit next to it.

Would you mind telling me what EC50 of hC3 cleavage value was observed for MTSP-1 C122S/G193A (enzyme) VVGGTDADEGEWPWQVSLHALGQGHICGASLISPNWLVSAAHCYIDDRGFRYSDPTQWTAFLGLHDQSQRSAPGVQERRLKRIISHPFFNDFTFDYDIALLELEKPAEYSSMVRPISLPDASHVFPAGKAIWVTGWGHTQYGGTGALILQKGEIRVINQTTCENLLPQQITPRMMCVGFLSGGVDSCQADSGGPLSSVEADGRIFQAGVVSWGDGCAQRNKPGVYTRLPLFRDWIKENTGV ?
44.7 nM

Would you mind telling me what EC50 of hC3 cleavage value was observed for MTSP-1 H40R/I41H/Y60gF/F97D/F99L/C122S/Q175M/Q192G/D217W/K224R (enzyme) VVGGTDADEGEWPWQVSLHALGQGRHCGASLISPNWLVSAAHCYIDDRGFRFSDPTQWTAFLGLHDQSQRSAPGVQERRLKRIISHPFFNDDTLDYDIALLELEKPAEYSSMVRPISLPDASHVFPAGKAIWVTGWGHTQYGGTGALILQKGEIRVINQTTCENLLPQMITPRMMCVGFLSGGVDSCGGDSGGPLSSVEADGRIFQAGVVSWGWGCAQRNRPGVYTRLPLFRDWIKENTGV ?
9.92 nM

Would you mind telling me what EC50 of hC3 cleavage value was observed for MTSP-1 ins97aD/F97T/T98S/F99L/C122S/Q192E/D217Y/K224R (enzyme) VVGGTDADEGEWPWQVSLHALGQGHICGASLISPNWLVSAAHCYIDDRGFRYSDPTQWTAFLGLHDQSQRSAPGVQERRLKRIISHPFFNDTDSLDYDIALLELEKPAEYSSMVRPISLPDASHVFPAGKAIWVTGWGHTQYGGTGALILQKGEIRVINQTTCENLLPQQITPRMMCVGFLSGGVDSCEGDSGGPLSSVEADGRIFQAGVVSWGYGCAQRNRPGVYTRLPLFRDWIKENTGV ?
5000 nM

Would you mind telling me what EC50 of hC3 cleavage value was observed for MTSP-1 Q38H/I41T/D60bH/ins97aV/F97D/T98P/F99L/C122S/I136F/L153P/Q192G/D217Y (enzyme) VVGGTDADEGEWPWQVSLHALGHGHTCGASLISPNWLVSAAHCYIDHRGFRYSDPTQWTAFLGLHDQSQRSAPGVQERRLKRIISHPFFNDDVPLDYDIALLELEKPAEYSSMVRPISLPDASHVFPAGKAFWVTGWGHTQYGGTGAPILQKGEIRVINQTTCENLLPQQITPRMMCVGFLSGGVDSCGGDSGGPLSSVEADGRIFQAGVVSWGYGCAQRNKPGVYTRLPLFRDWIKENTGV ?
25.5 nM

Would you mind telling me what EC50 of hC3 cleavage value was observed for MTSP-1 H40R/I41H/F97D/F99L/C122S/Q175R/Q192G/D217H/K224S (enzyme) VVGGTDADEGEWPWQVSLHALGQGRHCGASLISPNWLVSAAHCYIDDRGFRYSDPTQWTAFLGLHDQSQRSAPGVQERRLKRIISHPFFNDDTLDYDIALLELEKPAEYSSMVRPISLPDASHVFPAGKAIWVTGWGHTQYGGTGALILQKGEIRVINQTTCENLLPQRITPRMMCVGFLSGGVDSCGGDSGGPLSSVEADGRIFQAGVVSWGHGCAQRNSPGVYTRLPLFRDWIKENTGV ?
45.2 nM
